From: patent US12559492B2

I'd appreciate it if you could supply Emax values for the items below.
target: BRAF^V600E protein (Homo sapiens, UniProt P15056, V600E); test: HiBiT cellular BRAF V600E degradation assay; assay type: cell-based; conditions: A375.10 cells, 24 h incubation; Emax = amount of residual protein remaining in the cell after compound treatment; read-out: HiBit 24 h Emax
Sequence (P15056 whole entry V600E): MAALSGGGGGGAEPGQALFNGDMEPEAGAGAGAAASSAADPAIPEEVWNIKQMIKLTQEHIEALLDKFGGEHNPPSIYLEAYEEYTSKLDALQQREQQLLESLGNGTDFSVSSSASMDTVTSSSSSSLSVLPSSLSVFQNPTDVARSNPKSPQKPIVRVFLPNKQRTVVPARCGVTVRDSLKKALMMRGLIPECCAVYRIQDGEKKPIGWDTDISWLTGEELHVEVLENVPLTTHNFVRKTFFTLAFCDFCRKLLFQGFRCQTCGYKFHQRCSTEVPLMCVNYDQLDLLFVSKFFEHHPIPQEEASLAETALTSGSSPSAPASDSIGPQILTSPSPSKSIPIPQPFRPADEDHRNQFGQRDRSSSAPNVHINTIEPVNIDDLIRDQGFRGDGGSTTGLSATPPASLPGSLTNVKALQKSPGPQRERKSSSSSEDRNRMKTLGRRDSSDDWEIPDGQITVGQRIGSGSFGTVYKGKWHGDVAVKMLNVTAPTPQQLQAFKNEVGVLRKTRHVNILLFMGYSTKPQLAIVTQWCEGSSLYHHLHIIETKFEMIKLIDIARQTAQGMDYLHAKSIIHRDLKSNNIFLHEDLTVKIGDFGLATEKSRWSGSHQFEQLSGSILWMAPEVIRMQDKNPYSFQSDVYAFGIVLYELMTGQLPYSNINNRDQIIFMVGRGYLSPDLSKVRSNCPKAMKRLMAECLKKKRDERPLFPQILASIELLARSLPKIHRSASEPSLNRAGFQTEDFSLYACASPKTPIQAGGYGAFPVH
Answers are plain numbers, in %.

{"Compound": "CCN(C)S(=O)(=O)Nc1ccc(F)c(C(=O)c2c[nH]c3ncc(-c4ccc(N5CCN(C(=O)CC6(O)CCN(c7ccc(C8CCC(=O)NC8=O)cc7F)CC6)CC5)nc4)cc23)c1F (stereo not shown) [Example 160]", "Emax / %": 6.7}
{"Compound": "CCN(C)S(=O)(=O)Nc1ccc(F)c(C(=O)c2c[nH]c3ncc(-c4cnc(N5CCN(C(=O)CN6CCC(c7ccc(N8CCC(=O)NC8=O)cc7)CC6)CC5)nc4)cc23)c1F [Example A91]", "Emax / %": 8}
{"Compound": "CCN(C)S(=O)(=O)Nc1ccc(F)c(C(=O)c2c[nH]c3ncc(-c4ccc(N5CCN(C(=O)CC6(O)CCN(c7ccc8c(N9CCC(=O)NC9=O)nn(C)c8c7)CC6)CC5)cc4)cc23)c1F [Example 202]", "Emax / %": 7.44}
{"Compound": "CCN(C)S(=O)(=O)Nc1ccc(F)c(C(=O)c2c[nH]c3ncc(-c4cnc(N5CCC(C(=O)NC6CCN(c7ccc(NC8CCC(=O)NC8=O)cc7F)CC6)CC5)nc4)cc23)c1F (stereo not shown) [Example 128]", "Emax / %": 14.6}

// each compound listed below needs its Emax
1. CCN(C)S(=O)(=O)Nc1ccc(F)c(C(=O)c2c[nH]c3ncc(-c4cc(F)c(N5CCN(C(=O)CC6(O)CCN(c7ccc(NC8CCC(=O)NC8=O)cc7F)CC6)CC5)cc4F)cc23)c1F (stereo not shown) [Example 221]
2. CCN(C)S(=O)(=O)Nc1cccc(C(=O)c2c[nH]c3ncc(-c4ccc(N5CCN(C(=O)NC6CCN(c7ccc(NC8CCC(=O)NC8=O)cc7F)CC6)CC5)nc4)cc23)c1F (stereo not shown) [Example 154]
3. CCN(C)S(=O)(=O)Nc1ccc(F)c(C(=O)c2c[nH]c3ncc(-c4ccc(N5CCN(C(=O)CC6(O)CCN(c7ccc(N8CCC(=O)NC8=O)cc7F)CC6)CC5)nc4)cc23)c1F [Example 168]
4. CCN(C)S(=O)(=O)Nc1ccc(F)c(C(=O)c2c[nH]c3ncc(-c4ccc(CN5CCN(C(=O)CN6CCC(c7ccc(NC8CCC(=O)NC8=O)cc7)CC6)CC5)nc4)cc23)c1F (stereo not shown) [Example A9]

Resp:
1: 9.12; 2: 8.25; 3: 10.2; 4: 14

Report Emax for every entry below.
1. CCN(C)S(=O)(=O)Nc1ccc(F)c(C(=O)c2c[nH]c3ncc(-c4cnc(N5CCC(N(C)CC(=O)N6CCC(c7ccc(NC8CCC(=O)NC8=O)cn7)CC6)CC5)nc4)cc23)c1F (stereo not shown) [Example A90]
2. CCN(C)S(=O)(=O)Nc1ccc(F)c(C(=O)c2c[nH]c3ncc(-c4ccc(CN5CCN(C(=O)CN6CCC(c7ccc(OC8CCC(=O)NC8=O)cc7)CC6)CC5)cc4)cc23)c1F (stereo not shown) [Example A22]

Resp:
[20, 20]

---

target: BRAF^V600E protein (Homo sapiens, UniProt P15056, V600E); assay: HiBiT cellular BRAF V600E degradation assay; assay type: cell-based; conditions: A375.10 cells, 24 h incubation; Emax = amount of residual protein remaining in the cell after compound treatment; read-out: HiBit 24 h Emax
Reported Metric: Emax (%)
Answers are plain numbers, in %.

Field: example entries. Status: answers known.
{"Compound": "CCN(C)S(=O)(=O)Nc1ccc(F)c(C(=O)c2c[nH]c3ncc(-c4ccc(N5CCN(C(=O)CCCN6CCC(c7ccc(C8CCC(=O)NC8=O)cc7)CC6)CC5)nc4)cc23)c1F (centres unmarked) [Example A81]", "Emax, %": 13}
{"Compound": "CCN(C)S(=O)(=O)Nc1cccc(C(=O)c2c[nH]c3ncc(-c4cnc(N5CCN(C(=O)CC6(O)CCN(c7ccc(NC8CCC(=O)NC8=O)cc7F)CC6)CC5)nc4)cc23)c1F (centres unmarked) [Example 101]", "Emax, %": 10.2}
{"Compound": "CCN(C)S(=O)(=O)Nc1ccc(F)c(C(=O)c2c[nH]c3ncc(-c4cnc(N5CCN(C(=O)[C@H]6C[C@@H](N7CCC(c8ccc(NC9CCC(=O)NC9=O)cc8)CC7)C6)CC5)nc4)cc23)c1F (some centres unmarked) [Example A78]", "Emax, %": 15.4}
{"Compound": "CC(C)S(=O)(=O)Nc1ccc(F)c(C(=O)c2c[nH]c3ncc(-c4ccc(N5CCN(C(=O)C6CC(N7CCC(c8ccc(NC9CCC(=O)NC9=O)cc8)CC7)C6)CC5)nc4)cc23)c1F (centres unmarked) [Example A107]", "Emax, %": 12}

API: the following record is the query input.
Let me check: CCN(C)S(=O)(=O)Nc1ccc(F)c(C(=O)c2c[nH]c3ncc(-c4ccc(CN5CCC(C(=O)N6CCC(c7ccc(OC8CCC(=O)NC8=O)cc7)CC6)C5)cc4)cc23)c1F (centres unmarked) [Example A20] , system BRAF^V600E protein (Homo sapiens, UniProt P15056, V600E), measured Emax is 24
